// data source = paper PMC9249726

- ASSAY_NOTES: Plasma protein binding
- Format: in vitro ADME, human
- MEASUREMENT_SETUP: human, plasma, oral, 60 mg, Fraction unbound, normal hepatic function (n = 9); geometric mean (geometric CV)
ASSAY_METRIC: fraction unbound
Give bare numbers.

Asked: Need fraction unbound, item C[C@@H]1CCC[C@H](n2cnc(-c3cc(Cl)ccc3-n3cc(Cl)nn3)cc2=O)c2cc(ccn2)-c2c(cnn2C(F)F)NC1=O [milvexian]
Given back: 0.0775

---

- ASSAY_NOTES: Plasma protein binding
- Type: in vitro ADME, human
- MEASUREMENT_SETUP: human, plasma, oral, 60 mg, Fraction unbound, mild hepatic impairment (n = 9); geometric mean (geometric CV)
ASSAY_METRIC: fraction unbound
Numbers only.

Asked: Need fraction unbound, item "C[C@@H]1CCC[C@H](n2cnc(-c3cc(Cl)ccc3-n3cc(Cl)nn3)cc2=O)c2cc(ccn2)-c2c(cnn2C(F)F)NC1=O"
Given back: 0.0852
